target: Protein kinase C epsilon type (Homo sapiens, UniProt Q02156); assay: Inhibitory concentration against recombinant human Protein kinase C epsilon isozyme
Sequence (Q02156 whole entry): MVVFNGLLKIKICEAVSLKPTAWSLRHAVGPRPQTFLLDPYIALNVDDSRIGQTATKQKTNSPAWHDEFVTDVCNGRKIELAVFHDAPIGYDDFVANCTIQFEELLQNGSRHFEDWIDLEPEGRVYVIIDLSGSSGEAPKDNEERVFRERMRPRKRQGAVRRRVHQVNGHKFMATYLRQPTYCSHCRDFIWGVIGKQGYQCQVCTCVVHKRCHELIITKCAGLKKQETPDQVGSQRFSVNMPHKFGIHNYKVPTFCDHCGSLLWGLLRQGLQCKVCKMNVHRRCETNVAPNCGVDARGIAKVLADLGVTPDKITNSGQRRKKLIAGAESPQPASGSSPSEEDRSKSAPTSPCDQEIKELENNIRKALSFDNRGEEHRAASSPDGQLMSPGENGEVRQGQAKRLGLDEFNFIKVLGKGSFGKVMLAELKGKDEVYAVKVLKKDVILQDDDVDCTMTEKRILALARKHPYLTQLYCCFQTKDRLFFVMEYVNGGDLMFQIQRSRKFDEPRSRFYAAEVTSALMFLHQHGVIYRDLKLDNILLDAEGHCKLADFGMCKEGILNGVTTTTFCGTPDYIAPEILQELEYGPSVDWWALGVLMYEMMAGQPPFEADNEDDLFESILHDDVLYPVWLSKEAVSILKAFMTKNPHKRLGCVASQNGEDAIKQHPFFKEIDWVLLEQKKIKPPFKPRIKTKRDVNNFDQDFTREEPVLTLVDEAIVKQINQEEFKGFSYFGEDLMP
Test readout: IC50 (nM)

>>> print(df.to_string())
                              sample_smiles  readout_number
0  CC(=O)N1C[C@@H](NC(=O)c2ccc(O)cc2)[C@H](OC(=O)c2cc(O)c(C(=O)c3c(O)cccc3C(=O)O)c(O)c2)C1            3700

a: O=C(N[C@@H]1CN2CCC(CC2)[C@H]1OC(=O)c1cc(O)c(C(=O)c2c(O)cccc2C(=O)O)c(O)c1)c1ccc(O)cc1
b: CNC(=O)N1C[C@@H](NC(=O)c2ccc(O)cc2)[C@H](OC(=O)c2cc(O)c(C(=O)c3c(O)cccc3C(=O)O)c(O)c2)C1
c: NC[C@@H]1C[C@@H](NC(=O)c2ccc(O)cc2)[C@H](OC(=O)c2cc(O)c(C(=O)c3c(O)cccc3C(=O)O)c(O)c2)C1
Request: Put the items in order so that reported IC50 rises from first to last. Reply with the item labels sorted in the order that was asked for.
Response: c, a, b
